Target: human recombinant GSK-3β (Homo sapiens, UniProt P49841)
Sequence (P49841 whole entry): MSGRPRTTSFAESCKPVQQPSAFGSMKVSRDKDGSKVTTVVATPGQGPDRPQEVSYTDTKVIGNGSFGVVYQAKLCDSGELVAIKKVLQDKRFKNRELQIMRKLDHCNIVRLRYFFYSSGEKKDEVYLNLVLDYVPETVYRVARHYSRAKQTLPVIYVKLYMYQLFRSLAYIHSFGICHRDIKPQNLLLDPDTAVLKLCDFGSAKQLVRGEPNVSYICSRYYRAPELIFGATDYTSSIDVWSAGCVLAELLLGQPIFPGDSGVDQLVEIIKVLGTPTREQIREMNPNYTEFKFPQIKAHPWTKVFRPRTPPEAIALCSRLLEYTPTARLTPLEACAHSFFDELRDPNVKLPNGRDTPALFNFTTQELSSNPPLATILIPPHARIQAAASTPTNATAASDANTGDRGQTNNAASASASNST
Assay: GSK-3β activity, AlphaScreen with primed glycogen synthase substrate peptide
Assay type: biochemical
Details: human recombinant GSK-3β, 10 μM ATP, 60 min at room temperature, AlphaScreen; read-out: IC50
Description: GSK-β activity was measured using human recombinant GSK-3β and a primed (pre-phosphorylated) substrate peptide (derived from glycogen synthase and containing the phosphorylation sites 3a, b, and c) on basis of the AlphaScreen technology in 384-well plate format (small volume plate, white, GREINER).
pIC50: −log10 of the molar value.
value_type: pIC50

[
  {
    "structure_smiles_string": "Cc1cc(-c2cc(C(=O)NCc3ccc(Cl)cc3)c(=O)[nH]n2)ccc1O",
    "target_or_system": "human recombinant GSK-3β (Homo sapiens, UniProt P49841)",
    "pIC50": 4.99
  },
  {
    "structure_smiles_string": "O=C(NCc1ccc(N2CCOCC2)cc1)c1cc(-c2ccncc2)n[nH]c1=O",
    "target_or_system": "human recombinant GSK-3β (Homo sapiens, UniProt P49841)",
    "pIC50": 6.60
  },
  {
    "structure_smiles_string": "O=C(NCc1ccc(Cl)cc1Cl)c1cc(-c2ccncc2)n[nH]c1=O",
    "target_or_system": "human recombinant GSK-3β (Homo sapiens, UniProt P49841)",
    "pIC50": 6.14
  },
  {
    "structure_smiles_string": "O=C(NCc1ccc(C(F)(F)F)cc1)c1cc(-c2ccncc2)n[nH]c1=O",
    "target_or_system": "human recombinant GSK-3β (Homo sapiens, UniProt P49841)",
    "pIC50": 6.91
  },
  {
    "structure_smiles_string": "O=C(NCc1ccc(Cl)cc1F)c1cc(-c2ccncc2)n[nH]c1=O",
    "target_or_system": "human recombinant GSK-3β (Homo sapiens, UniProt P49841)",
    "pIC50": 6.60
  }
]

A = CCCCNc1nccc(-c2cc(C(=O)NCCCN3CCN(C)CC3)c(=O)[nH]n2)n1
B = O=C(NCCCc1cccnc1)c1cc(-c2ccc(O)cc2)n[nH]c1=O
Asked: Lab note: check whether A or B has the lower measured pIC50. Lab log: write the label of the selected item as the result.
Given back: A
(A: 7.66, B: 8.15)

a = Cc1cc(-c2cc(C(=O)NCCCc3cccnc3)c(=O)[nH]n2)cc(C)c1O
b = O=C(NCc1ccc(Cl)cc1)c1cc(-c2cccc(O)c2)n[nH]c1=O
c = O=C(Nc1ccncc1)c1ccc(CNC(=O)c2cc(-c3ccncc3)n[nH]c2=O)cc1
d = COc1cc(-c2cc(C(=O)NCc3ccc(C(=O)O)cc3)c(=O)[nH]n2)ccc1O
Asked: Sort the 4 molecules by pIC50; largest first, smallest last. List labels; respect the requested ordering.
Given back: d, a, c, b

A = Cc1cc(-c2cc(C(=O)NCc3ccc(C(=O)O)cc3)c(=O)[nH]n2)cc(C)c1O
B = O=C(NCCCc1ccccc1)c1cc(-c2ccncc2)n[nH]c1=O
C = CCCCNc1nccc(-c2cc(C(=O)NCc3cccnc3)c(=O)[nH]n2)n1
D = O=C(NCc1ccc(Cl)cc1)c1cc(-c2ccncc2)n[nH]c1=O
E = O=C(NCc1ccc(Cl)cc1)c1cc(-c2ccnc(NCCN3CCOCC3)n2)n[nH]c1=O
Asked: Rank ascending by pIC50. List labels; respect the requested ordering.
Given back: D, B, C, E, A

A = C[C@@H](Nc1nccc(-c2cc(C(=O)NCCCc3ccccc3)c(=O)[nH]n2)n1)c1ccccc1
B = COc1cc(-c2cc(C(=O)NCc3ccc(Cl)cc3)c(=O)[nH]n2)ccc1O
C = O=C(NCc1ccc(Cl)cc1)c1cc(-c2cc(F)c(O)c(F)c2)n[nH]c1=O
Asked: Rank ascending by pIC50. List labels; respect the requested ordering.
Given back: B, C, A

I = O=C(NCc1ccc(Cl)cc1)c1cc(-c2ccc(O)cc2)n[nH]c1=O
II = CNc1cc(-c2cc(C(=O)NCc3ccc(Cl)cc3)c(=O)[nH]n2)ccn1
Asked: Between these two entries, I and II , state which has the higher pIC50. Lab log: write the label of the selected item as the result.
Given back: II
(II: 7.52, I: 5.55)

A = O=C(NCc1ccc(Br)cc1)c1cc(-c2ccncc2)n[nH]c1=O
B = COc1cc(-c2cc(C(=O)NCCCc3cccnc3)c(=O)[nH]n2)ccc1O
Asked: Lab note: check whether A or B has the lower measured pIC50. Lab log: write the label of the selected item as the result.
Given back: A

A = O=C(NCc1cccnc1)c1cc(-c2ccncc2)n[nH]c1=O
B = O=C(NCc1ccc(Cl)cc1)c1cc(-c2ccc(O)c(Cl)c2)n[nH]c1=O
Asked: Between these two entries, A and B , state which has the higher pIC50. Lab log: write the label of the selected item as the result.
Given back: A
(A: 7.01, B: 6.64)

###

value_type: melting point (°C)

[
  {
    "structure_smiles_string": "O=C(NCc1ccc(Cl)cc1)c1cc(-c2ccncc2)n[nH]c1=O",
    "melting point [°C]": 250
  },
  {
    "structure_smiles_string": "O=C(NCc1ccccn1)c1cc(-c2ccncc2)n[nH]c1=O",
    "melting point [°C]": 242
  },
  {
    "structure_smiles_string": "O=C(NCc1ccc(C(F)(F)F)cc1)c1cc(-c2ccncc2)n[nH]c1=O",
    "melting point [°C]": 227
  },
  {
    "structure_smiles_string": "O=C(NCc1cccc(C(F)(F)F)c1)c1cc(-c2ccncc2)n[nH]c1=O",
    "melting point [°C]": 224
  },
  {
    "structure_smiles_string": "CCCCNC(=O)c1cc(-c2ccncc2)n[nH]c1=O",
    "melting point [°C]": 209
  }
]

###

value_type: melting point (°C)

[
  {
    "structure_smiles_string": "O=C(NCc1ccc(N2CCOCC2)cc1)c1cc(-c2ccncc2)n[nH]c1=O",
    "melting point, °C": 252
  },
  {
    "structure_smiles_string": "O=C(NCc1ccc(Cl)c(Cl)c1)c1cc(-c2ccncc2)n[nH]c1=O",
    "melting point, °C": 265
  },
  {
    "structure_smiles_string": "O=C(NCc1cccnc1)c1cc(-c2ccncc2)n[nH]c1=O",
    "melting point, °C": 262
  },
  {
    "structure_smiles_string": "O=C(NCc1ccccc1)c1cc(-c2ccncc2)n[nH]c1=O",
    "melting point, °C": 258
  },
  {
    "structure_smiles_string": "O=C(NCc1ccncc1)c1cc(-c2ccncc2)n[nH]c1=O",
    "melting point, °C": 254
  },
  {
    "structure_smiles_string": "O=C(NCc1ccc(Cl)cc1Cl)c1cc(-c2ccncc2)n[nH]c1=O",
    "melting point, °C": 233
  },
  {
    "structure_smiles_string": "CCOC(=O)CCNC(=O)c1cc(-c2ccncc2)n[nH]c1=O",
    "melting point, °C": 180
  },
  {
    "structure_smiles_string": "O=C(NCCc1ccc(Cl)cc1Cl)c1cc(-c2ccncc2)n[nH]c1=O",
    "melting point, °C": 202
  }
]

###

target: human recombinant GSK-3β (Homo sapiens); test: GSK-3β activity, AlphaScreen with primed glycogen synthase substrate peptide; format: biochemical
pIC50: −log10 of the molar value.
value_type: pIC50

[
  {
    "structure_smiles_string": "CCCCNc1nccc(-c2cc(C(=O)NCCCc3cccnc3)c(=O)[nH]n2)n1",
    "pIC50": 7.44
  },
  {
    "structure_smiles_string": "O=C(NCc1ccc(F)cc1F)c1cc(-c2ccncc2)n[nH]c1=O",
    "pIC50": 7.19
  },
  {
    "structure_smiles_string": "O=C(NCc1ccc(Cl)cc1)c1cc(-c2ccc(O)c(F)c2)n[nH]c1=O",
    "pIC50": 7.41
  }
]
